These measurements were taken from the supplement of paper PMC3334620.

Molecular target: Yer064c (UniProt P40041)
Sequence: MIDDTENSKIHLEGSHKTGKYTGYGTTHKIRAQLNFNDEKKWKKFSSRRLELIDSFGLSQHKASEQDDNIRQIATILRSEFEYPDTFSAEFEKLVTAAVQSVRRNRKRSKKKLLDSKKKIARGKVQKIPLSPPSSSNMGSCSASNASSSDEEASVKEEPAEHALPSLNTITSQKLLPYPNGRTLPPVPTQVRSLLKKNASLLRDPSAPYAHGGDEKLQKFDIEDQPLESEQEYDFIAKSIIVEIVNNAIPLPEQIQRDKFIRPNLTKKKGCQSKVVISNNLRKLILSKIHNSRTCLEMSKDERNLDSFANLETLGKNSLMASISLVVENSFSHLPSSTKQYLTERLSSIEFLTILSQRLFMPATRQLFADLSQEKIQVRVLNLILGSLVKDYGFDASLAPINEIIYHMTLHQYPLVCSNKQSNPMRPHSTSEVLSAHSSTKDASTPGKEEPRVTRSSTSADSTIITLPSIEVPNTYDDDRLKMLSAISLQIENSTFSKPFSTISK
Experiment: PBM E-score (8-mer binding enrichment) (E-score (-0.5 to 0.5)); higher = stronger / more preferred TF binding
Conditions: protein concentration: 200 nM; construct: GST-full length
The full ranking holds about 33,000 sequences; the median of “E-score (-0.5 to 0.5)” is about -0.036, and the highest 2% start at about 0.37. Many of the other results were omitted from the sample, so the highest values are more common in it than they were.
Consider the following partition of reported PBM E-score into named classes: L: < -0.02; M: ≥ -0.02 and < 0.1; H: ≥ 0.1

A selection of reference data follows.
ACATCGGA :: M
CGCAATCA :: H
ACACGACA :: H
CTGCCTAC :: L
TCTCGAAA :: M

INPUT: Category of CTGACCAG , please.
OUTPUT: M

INPUT: Which category does the recorded PBM E-score put AACTCTTA in?
OUTPUT: M

INPUT: Please indicate the class for CGGCGATC based on its PBM E-score.
OUTPUT: L
